- METHOD: Stability in rat liver microsomes assessed as parent compound remaining at 1 uM measured after 60 mins in presence of NADPH by LC-MS/MS analysis
- Format: ADME, Microsome
- RUN_CONDITIONS: read-out: Stability
EXPERIMENTAL_READOUT: remaining at 1 h, 1 µM (%)
One number for each entry, in %.

Consider the reported remaining at 1 h, 1 µM for these compounds:
SMILES_RECORD: CN1CCN(c2cc(F)c3c(c2)N(C)C(=O)C32CCN(c3nc4c(c(=O)[nH]3)CCCN4C)CC2)CC1
EXPERIMENTAL_READOUT: remaining at 1 h, 1 µM
UNITS_LABEL: %
READING: 65.3
//
SMILES_RECORD: CN1CCCc2c1nc(N1CCC3(CC1)CN(CCO)c1cc(F)cc(F)c13)[nH]c2=O
EXPERIMENTAL_READOUT: remaining at 1 h, 1 µM
UNITS_LABEL: %
READING: 0.2
//
SMILES_RECORD: O=c1[nH]c(N2CCC3(CC2)CN(CCO)c2cc(F)cc(F)c23)nc2c1CCCC2
EXPERIMENTAL_READOUT: remaining at 1 h, 1 µM
UNITS_LABEL: %
READING: 3.2
//
SMILES_RECORD: CN1CCCc2c1nc(N1CCC3(CC1)C(=O)N(CCO)c1cc(F)cc(F)c13)[nH]c2=O
EXPERIMENTAL_READOUT: remaining at 1 h, 1 µM
UNITS_LABEL: %
READING: 0.5

Continue with the compound presented below.
# query: remaining at 1 h, 1 µM of entry C[C@@H]1CN(c2cc(F)c3c(c2)N(C)C(=O)C32CCN(c3nc4c(c(=O)[nH]3)CCCN4C)CC2)C[C@H](C)O1
44

====

- METHOD: Cmax in ICR mouse at 50 mg/kg, po
- Format: ADME, organism-based
- Parameters: dose 50 mg/kg, route oral
- RUN_CONDITIONS: in vivo
Please respond with reported Cmax for every item in the list.
Answers are plain numbers, in µM.

SMILES_RECORD: C[C@@H]1CN(c2cc(F)c3c(c2)N(C)C(=O)C32CCN(c3nc4c(c(=O)[nH]3)CCCN4C)CC2)C[C@H](C)O1
Cmax [µM]: 121

Continue with the compound presented below.
# query: Cmax of entry CN1CCN(c2cc(F)c3c(c2)N(C)C(=O)C32CCN(c3nc4c(c(=O)[nH]3)CCCN4C)CC2)CC1
21.2

====

- METHOD: Stability in human liver microsomes assessed as parent compound remaining at 1 uM measured after 30 mins in presence of NADPH by LC-MS/MS analysis
- Type: ADME, Microsome
- RUN_CONDITIONS: read-out: Stability
EXPERIMENTAL_READOUT: remaining at 0.5 h, 1 µM (%)
One number for each entry, in %.

Consider the reported remaining at 0.5 h, 1 µM for these compounds:
SMILES_RECORD: C[C@@H]1CN(c2cc(F)c3c(c2)N(C)C(=O)C32CCN(c3nc4c(c(=O)[nH]3)CCCN4C)CC2)C[C@H](C)O1
remaining at 0.5 h, 1 µM (%): 73
--
SMILES_RECORD: CN1CCN(c2cc(F)c3c(c2)N(C)C(=O)C32CCN(c3nc4c(c(=O)[nH]3)CCCN4C)CC2)CC1
remaining at 0.5 h, 1 µM (%): 72.7
--
SMILES_RECORD: CN1CCCc2c1nc(N1CCC3(CC1)C(=O)N(CCO)c1cc(F)cc(F)c13)[nH]c2=O
remaining at 0.5 h, 1 µM (%): 21

Continue with the compound presented below.
# query: remaining at 0.5 h, 1 µM of entry CN1CCCc2c1nc(N1CCC3(CC1)CN(CCO)c1cc(F)cc(F)c13)[nH]c2=O
7.4
